Each entry below carries its recorded %inhibition USP24.
targetOrTestSystem: USP24 (Homo sapiens, UniProt Q9UPU5)
Construct: (1-2620); His10; purchased Biotechne E-616
Sequence (Q9UPU5 whole entry): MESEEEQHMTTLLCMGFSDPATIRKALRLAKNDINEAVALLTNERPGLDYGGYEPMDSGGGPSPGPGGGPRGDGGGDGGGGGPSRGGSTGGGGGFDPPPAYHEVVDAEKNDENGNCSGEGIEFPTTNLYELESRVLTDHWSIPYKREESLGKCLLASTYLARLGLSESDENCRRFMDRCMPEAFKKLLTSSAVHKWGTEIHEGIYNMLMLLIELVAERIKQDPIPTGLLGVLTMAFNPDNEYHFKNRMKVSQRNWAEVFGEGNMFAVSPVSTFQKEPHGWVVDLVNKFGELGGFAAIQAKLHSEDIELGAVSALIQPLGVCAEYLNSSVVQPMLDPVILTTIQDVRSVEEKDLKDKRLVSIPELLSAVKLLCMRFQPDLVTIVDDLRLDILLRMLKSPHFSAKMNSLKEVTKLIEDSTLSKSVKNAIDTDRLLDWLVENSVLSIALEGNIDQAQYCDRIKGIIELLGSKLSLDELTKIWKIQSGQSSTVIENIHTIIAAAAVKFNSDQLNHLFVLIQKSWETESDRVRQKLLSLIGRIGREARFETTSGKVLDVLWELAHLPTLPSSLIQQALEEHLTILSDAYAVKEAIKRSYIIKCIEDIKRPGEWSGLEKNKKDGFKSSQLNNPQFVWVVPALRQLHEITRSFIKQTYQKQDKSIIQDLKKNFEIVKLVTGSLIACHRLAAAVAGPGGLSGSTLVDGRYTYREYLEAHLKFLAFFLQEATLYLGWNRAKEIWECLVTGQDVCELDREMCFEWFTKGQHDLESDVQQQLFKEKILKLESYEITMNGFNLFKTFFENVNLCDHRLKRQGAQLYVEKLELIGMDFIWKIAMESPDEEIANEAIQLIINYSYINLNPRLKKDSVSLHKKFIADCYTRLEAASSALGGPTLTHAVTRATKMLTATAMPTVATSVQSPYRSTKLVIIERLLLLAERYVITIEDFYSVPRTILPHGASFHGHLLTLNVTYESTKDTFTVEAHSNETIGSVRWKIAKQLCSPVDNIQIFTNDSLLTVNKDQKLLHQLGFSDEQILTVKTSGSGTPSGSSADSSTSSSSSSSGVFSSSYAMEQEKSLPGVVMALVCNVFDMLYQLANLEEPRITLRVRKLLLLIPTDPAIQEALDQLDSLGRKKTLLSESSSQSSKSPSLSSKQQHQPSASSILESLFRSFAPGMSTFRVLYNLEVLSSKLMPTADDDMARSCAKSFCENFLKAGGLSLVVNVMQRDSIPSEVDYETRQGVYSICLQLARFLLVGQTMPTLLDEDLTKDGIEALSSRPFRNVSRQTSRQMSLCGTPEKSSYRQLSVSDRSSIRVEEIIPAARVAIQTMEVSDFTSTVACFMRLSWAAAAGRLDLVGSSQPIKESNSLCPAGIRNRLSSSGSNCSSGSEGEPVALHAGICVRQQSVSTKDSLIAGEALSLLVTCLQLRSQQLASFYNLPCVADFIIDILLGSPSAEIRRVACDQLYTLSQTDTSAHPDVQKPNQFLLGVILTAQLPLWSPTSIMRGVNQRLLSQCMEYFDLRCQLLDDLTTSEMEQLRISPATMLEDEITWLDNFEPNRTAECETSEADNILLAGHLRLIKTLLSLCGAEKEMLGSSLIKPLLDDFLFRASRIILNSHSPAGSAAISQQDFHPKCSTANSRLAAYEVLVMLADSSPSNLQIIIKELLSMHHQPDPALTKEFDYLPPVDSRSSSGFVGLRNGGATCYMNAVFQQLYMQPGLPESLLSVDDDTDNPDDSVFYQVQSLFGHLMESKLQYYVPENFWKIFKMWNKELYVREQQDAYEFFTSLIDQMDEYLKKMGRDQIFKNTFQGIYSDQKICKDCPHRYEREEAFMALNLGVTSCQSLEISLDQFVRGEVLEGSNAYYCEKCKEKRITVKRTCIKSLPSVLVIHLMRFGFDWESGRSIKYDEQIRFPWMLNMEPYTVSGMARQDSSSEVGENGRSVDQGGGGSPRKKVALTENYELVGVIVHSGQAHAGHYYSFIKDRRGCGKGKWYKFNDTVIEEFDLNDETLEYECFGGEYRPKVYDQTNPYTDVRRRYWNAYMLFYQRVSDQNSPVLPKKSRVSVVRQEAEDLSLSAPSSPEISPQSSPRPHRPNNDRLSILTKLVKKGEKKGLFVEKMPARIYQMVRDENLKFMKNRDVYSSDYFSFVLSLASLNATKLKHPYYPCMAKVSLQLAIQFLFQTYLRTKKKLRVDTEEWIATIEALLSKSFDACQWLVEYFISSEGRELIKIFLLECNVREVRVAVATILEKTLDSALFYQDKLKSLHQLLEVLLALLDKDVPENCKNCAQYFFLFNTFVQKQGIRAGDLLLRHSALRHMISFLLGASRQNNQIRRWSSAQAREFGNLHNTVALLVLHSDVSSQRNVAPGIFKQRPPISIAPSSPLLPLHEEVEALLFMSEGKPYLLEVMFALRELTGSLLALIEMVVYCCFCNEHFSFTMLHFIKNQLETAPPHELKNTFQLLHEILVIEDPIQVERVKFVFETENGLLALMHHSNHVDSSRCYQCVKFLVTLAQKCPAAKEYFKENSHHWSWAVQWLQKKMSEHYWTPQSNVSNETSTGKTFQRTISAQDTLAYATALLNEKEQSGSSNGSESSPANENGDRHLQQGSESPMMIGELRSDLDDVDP
assayExplanation: High-throughput screening, Ub-RhoMP, single dose 1.25 µM
Format: biochemical
settings: crude in-plate synthesized compound, 1.25 µM assuming full conversion
Please respond with the number in % and leave the unit unwritten.

N#CN1CC[C@@H](NC(=O)CCN(Cc2ccccc2)S(=O)(=O)c2c(Cl)cccc2Cl)C1 [BB01CA93] = 9.1
N#CN1CC[C@@H](NC(=O)c2ncoc2-c2cccs2)C1 [BB01CA94] = -1.8
N#CN1CC[C@@H](NC(=O)Cc2csc(-c3cnccn3)n2)C1 [BB01CA92] = 3.2
N#CN1CC[C@@H](NC(=O)c2nc(N3CCCC3)ncc2Cl)C1 [BB01CA90] = 0.9

Please examine the following record next.
Query: Form: Entry = N#CN1CC[C@@H](NC(=O)C(Cc2c[nH]cn2)NS(=O)(=O)c2ccc(Cl)cc2)C1 (some centres unmarked) [BB01CA91] | System = USP24 (Homo sapiens, UniProt Q9UPU5) | %inhibition USP24 = ____
Reply: -0.9
